# Target Entity: Cdk4/CyclinD1 (Homo sapiens (Human), UniProt P11802)
# Sequence (P11802 whole entry): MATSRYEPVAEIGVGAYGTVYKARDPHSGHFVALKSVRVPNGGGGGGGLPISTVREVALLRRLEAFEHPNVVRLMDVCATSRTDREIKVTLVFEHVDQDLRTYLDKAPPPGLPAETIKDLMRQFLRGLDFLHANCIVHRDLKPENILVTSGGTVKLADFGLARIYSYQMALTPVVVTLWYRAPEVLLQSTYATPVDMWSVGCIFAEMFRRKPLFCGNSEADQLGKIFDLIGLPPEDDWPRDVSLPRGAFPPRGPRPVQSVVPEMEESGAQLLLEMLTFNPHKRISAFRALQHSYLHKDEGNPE
# Sequence (P24385 whole entry partner): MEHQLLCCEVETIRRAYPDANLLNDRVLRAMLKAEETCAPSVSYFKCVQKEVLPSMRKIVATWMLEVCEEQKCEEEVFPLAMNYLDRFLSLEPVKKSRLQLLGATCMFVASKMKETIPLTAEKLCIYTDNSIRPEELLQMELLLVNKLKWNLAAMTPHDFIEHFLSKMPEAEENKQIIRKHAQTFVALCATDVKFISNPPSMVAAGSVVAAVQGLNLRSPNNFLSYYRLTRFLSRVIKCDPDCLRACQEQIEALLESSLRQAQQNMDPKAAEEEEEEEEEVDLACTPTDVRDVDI
# Protocol Text: Cdk4 kinase inhibition assay with recombinant Cdk4/CyclinD1, Rb substrate, [33P]-ATP filter plate
# Measurement Conditions: 25 μM ATP, read-out: Cdk 4 IC50
pIC50: −log10 of the molar value.
Reported Endpoint: pIC50

1. O[C@@H]1CCN(c2ccc(Nc3ncc4c5ccncc5n([C@H]5CCC[C@H]5O)c4n3)nc2)C1
2. OC1CN(C2CCN(c3ccc(Nc4ncc5c6ccncc6n(C6CCCC6)c5n4)nc3)CC2)C1
3. FC(F)(F)CNC1CCN(c2ccc(Nc3ncc4c5ccncc5n(C5CCCC5)c4n3)nc2)CC1
4. OCC1CCN(c2ccc(Nc3ncc4c5ccnc(F)c5n(C5CCCC5)c4n3)nc2)CC1
5. CN(C)C1CCN(c2ccc(Nc3ncc4c5ccncc5n(C5CCC5)c4n3)nn2)CC1
Sort ascending by pIC50: all records listed above. Form field (ranking): labels in requested order.
1, 5, 3, 2, 4

---

# Target Entity: Cdk4/CyclinD1 (Homo sapiens (Human), UniProt P11802)
# Protocol Text: Cdk4 kinase inhibition assay with recombinant Cdk4/CyclinD1, Rb substrate, [33P]-ATP filter plate
# Measurement Conditions: 25 μM ATP, read-out: Cdk 4 IC50
pIC50: −log10 of the molar value.
Reported Endpoint: pIC50

Reference set, count: 4
{"Molecule": "N[C@H]1CCN(c2cnc(Nc3ncc4c5ccncc5n(C5CCCC5)c4n3)cn2)C1", "Target Entity": "Cdk4/CyclinD1 (Homo sapiens (Human), UniProt P11802)", "Measured Result": 8.12}
{"Molecule": "C[C@H]1CN(c2ccc(Nc3ncc4c5ccncc5n([C@H]5CCC[C@@H]5O)c4n3)nn2)CCN1", "Target Entity": "Cdk4/CyclinD1 (Homo sapiens (Human), UniProt P11802)", "Measured Result": 7.46}
{"Molecule": "CC1(C)CCC(n2c3cnccc3c3cnc(Nc4ccc(N5CCNCC5)cn4)nc32)CC1", "Target Entity": "Cdk4/CyclinD1 (Homo sapiens (Human), UniProt P11802)", "Measured Result": 8.46}
{"Molecule": "c1cc2c3cnc(Nc4ccc(N5CCC(NC6CCC6)CC5)cn4)nc3n(C3CCCC3)c2cn1", "Target Entity": "Cdk4/CyclinD1 (Homo sapiens (Human), UniProt P11802)", "Measured Result": 8.38}

P. OCCN1CCN(c2ccc(Nc3ncc4c5ccnc(F)c5n(C5CCCC5)c4n3)nc2)CC1
Q. O[C@@H]1CCN(c2ccc(Nc3ncc4c5ccncc5n(C5CCC5)c4n3)nc2)C1
R. CC1CN(c2cnc(Nc3ncc4c5ccncc5n(C5CCCC5)c4n3)cn2)CC(C)N1 (stereo not drawn)
S. CC(C)NC1CCN(c2ccc(Nc3ncc4c5ccncc5n(C5CCCC5)c4n3)nc2)CC1
Please order the records by their reported pIC50, lowest number first. Form field (ranking): labels in requested order.
Q, R, S, P

1. CC(C)n1c2cnccc2c2cnc(Nc3ccc(N4CCNCC4)cn3)nc21
2. CCC(C)(C)n1c2cnccc2c2cnc(Nc3ccc(N4CCNCC4)cn3)nc21
Please let me know which one, 1 or 2 , has a lower measured pIC50 value. Pick one; state its label.
2

---

# Target Entity: Cdk4/CyclinD1 (Homo sapiens (Human), UniProt P11802)
# Protocol Text: Cdk4 kinase inhibition assay with recombinant Cdk4/CyclinD1, Rb substrate, [33P]-ATP filter plate
# Measurement Conditions: 25 μM ATP, read-out: Cdk 4 IC50
# Protocol: The Cdk4 and Cdk6 inhibitory activity of the compounds is measured with a kinase inhibition assay using recombinant Cdk4/CyclinD1 or Cdk6/CyclinD3 protein complexes. The protein substrate used in the assay is the retinoblastoma protein (Rb). […] The amount of the phosphorylated Rb is determined with a TopCount (PerkinElmer). The IC50 of a compound is determined by nonlinear regression curve fitting using software program Prism 5 (GraphPad Software).
Reported Endpoint: IC50 (µM)

Reference set, count: 5
{"Compound": "OCC1(n2c3cnccc3c3cnc(Nc4ccc(N5CCNCC5)cn4)nc32)CCCC1", "Target Entity": "Cdk4/CyclinD1 (Homo sapiens (Human), UniProt P11802)", "Unit String": "µM", "IC50": 0.011}
{"Compound": "CCC(CC)n1c2cnccc2c2cnc(Nc3ccc(N4CCC(N(C)C)CC4)nn3)nc21", "Target Entity": "Cdk4/CyclinD1 (Homo sapiens (Human), UniProt P11802)", "Unit String": "µM", "IC50": 0.017}
{"Compound": "c1cc2c3cnc(Nc4ccc(N5CCNCC5)nn4)nc3n([C@@H]3CCOC3)c2cn1", "Target Entity": "Cdk4/CyclinD1 (Homo sapiens (Human), UniProt P11802)", "Unit String": "µM", "IC50": 0.024}
{"Compound": "CN(C)C1CCN(c2ccc(Nc3ncc4c5ccncc5n(C5CCSCC5)c4n3)nn2)CC1", "Target Entity": "Cdk4/CyclinD1 (Homo sapiens (Human), UniProt P11802)", "Unit String": "µM", "IC50": 0.017}
{"Compound": "O=S(=O)(c1ccc(Nc2ncc3c4ccncc4n(C4CCCC4)c3n2)nc1)N1CCNCC1", "Target Entity": "Cdk4/CyclinD1 (Homo sapiens (Human), UniProt P11802)", "Unit String": "µM", "IC50": 0.003}

1. CC[C@H](C)n1c2cnccc2c2cnc(Nc3ccc(N4CCC(N(C)C)CC4)nn3)nc21
2. CC1(n2c3cnccc3c3cnc(Nc4ccc(N5CCNCC5)cn4)nc32)CCC1
Please let me know which one, 1 or 2 , has a lower measured IC50 value. Pick one; state its label.
2

a. c1cc2c3cnc(Nc4ccc(N5CCC(NC6CC6)CC5)cn4)nc3n(C3CCCC3)c2cn1
b. C[C@H](CO)n1c2cnccc2c2cnc(Nc3ccc(N4CC[C@@H](O)C4)nn3)nc21
c. CNC1CCN(c2ccc(Nc3ncc4c5ccncc5n([C@H]5CCC[C@H]5O)c4n3)nc2)CC1
d. NC(=O)CC1CCN(c2ccc(Nc3ncc4c5ccnc(F)c5n(C5CCCC5)c4n3)nc2)CC1
e. c1cc(-c2ccc(Nc3ncc4c5ccncc5n(C5CCCC5)c4n3)nc2)ccn1
# desc sort on IC50 across 5 compounds Form field (ranking): labels in requested order.
d, c, b, e, a
(d: 0.93 µM, c: 0.3 µM, b: 0.166 µM, e: 0.045 µM, a: 0.0041 µM)

a. O=C1CNCCN1Cc1ccc(Nc2ncc3c4ccncc4n(C4CCCC4)c3n2)nc1
b. CC(C)(C)n1c2cnccc2c2cnc(Nc3ccc(N4CCNCC4)cn3)nc21
c. C[C@H](CO)n1c2cnccc2c2cnc(Nc3ccc(N4CCNC(C)(C)C4)nn3)nc21
Please order the records by their reported IC50, lowest number first. Form field (ranking): labels in requested order.
a, b, c

a. C[C@H](O)CNc1ccc(Nc2ncc3c4ccncc4n(C4CCCC4)c3n2)nn1
b. CC1(C)CN(c2ccc(Nc3ncc4c5ccncc5n([C@H]5CCC[C@@H]5O)c4n3)nc2)CCN1
Please let me know which one, a or b , has a lower measured IC50 value. Pick one; state its label.
a
(a: 0.0059 µM, b: 0.175 µM)
